Here, each record is paired with measured melting point data.

| Molecule | Result |
| --- | --- |
| NC(=NCC(F)(F)F)Nc1nc(CO)ns1 | 123 to 125 °C |
| N#CCCC(=O)c1ccncc1 | 53.5 to 55 °C |
| Cc1cc(Cl)n2nc(SCc3ccccc3)nc2c1 | 108 to 110 °C |

Value lookup for melting point; key = Cc1ccc(-n2c(-c3ccc(CC(=O)O)cc3)ccc2-c2ccc(CC(=O)O)cc2)cc1
193 to 195 °C

For the molecule shown here, CCCN1C(=O)c2cnc(-c3ccccc3)nc2N(C(=O)CN2CCN(C)CC2)c2ccccc21 , give the reported melting point.
148 to 150 °C

What value of melting point has been recorded for this entry: CC(=O)Oc1ccccc1-c1ccc(=O)[nH]n1
181 to 184 °C

Consider the molecule COc1ccc(C(=O)CC(=O)c2snc(Cl)c2Cl)cc1 and give its measured melting point.
138 to 139 °C

Which melting point value is on record for O=C(CN1C(=O)c2ccccc2C1=O)NNC(=O)c1ncn2c1[C@@H]1CCN1C(=O)c1sccc1-2 ?
> 260 °C

###

Reported values of melting point for individual entries

| Molecule | melting point |
| --- | --- |
| CC(=O)OC1(O)C(C(C)(C)C)=CC(C(=O)c2ccccc2O)=CC1C(C)(C)C (centres undefined) | 182 to 186 °C |

Please give the measured melting point for this molecule: CCCCc1ccc(C(=O)Oc2ccc(C(=O)O)cc2)cc1C12CC3CC(CC(C3)C1)C2
205 to 206 °C

Recorded melting point for CC(CCCCCC(C)NC(=O)c1ccc(OC(F)(F)F)cc1)NC(=O)c1ccc(OC(F)(F)F)cc1 (centres undefined) , please?
156 to 160 °C

###

Reported melting point values for a set of molecules

Before answering, review these 5 worked examples.
| Structure smiles string | melting point |
| --- | --- |
| Nc1nc(OCc2ccc(F)cc2)ncc1F | 129 to 131 °C |
| O=C(O)c1cn(C2CC2)c2c(F)c(N3CCC3)c(F)cc2c1=O | 289 to 293 °C |
| CCSc1noc(-c2ccc(NS(C)(=O)=O)c(Oc3ccc(F)cc3F)c2)n1 | 116 to 119 °C |
| Cc1cc(I)cc2c(=O)[nH]oc12 | 232 to 233 °C |
| O=c1[nH]c2cc(Cl)c(Cl)cc2[n+]([O-])c1-c1ccccc1 | 300 to 302 °C |

Could you now look at the following molecule, please?
Entry under review: Cc1cc(-c2nc3cccnn3c2-c2ccnc(NC(=O)c3ccccc3)c2)ccc1F . Reported melting point?
189 to 190 °C

###

Recorded melting point for the following compounds

Record excerpt, results attached:
| Compound | melting point |
| --- | --- |
| O=C1CC(c2cccc(-n3ccnc3)c2)=Nc2ccc(-c3ccc(F)cc3O)cc2N1 | 220 °C |
| Cn1ncc(C(=O)O)c1OCc1ccccc1 | 117 to 122 °C |
| O=C(O)CCc1c(-c2ccccc2)noc1O | 183 to 184 °C |
| O=C(O)Cc1cc(=O)[nH]c2ccccc12 | 213 to 215 °C |
| CCOC(=O)C(Cc1cccc2cccnc12)(NC=O)C(=O)OCC | 120 to 122 °C |

Could you tell me which melting point is on file for Cc1ccc2c(c1)C(C)(Cl)C(=S)N2 (stereo unspecified) ?
185 to 187 °C

Which melting point value is on record for CCC1CCCCN1C(=O)C=Cc1c(-c2cccc(NC)c2)nn2ccccc12 (stereo unspecified) ?
135 to 141 °C

// lookup melting point for CCN(CC)C(=O)n1cnc(SCC2CC2)n1
51 to 52 °C

So what does the record say about melting point for CC(/C=C/C(=O)OC(C)(C)C)=C\c1ccc([N+](=O)[O-])cc1 ?
120 to 122 °C

Record request: melting point value, item CCN(CC)c1nc(NCCCCO)nc(Nc2ccc3cc(-c4ccccc4)c(=O)oc3c2)n1
124 to 126 °C

Quick check: melting point of CCc1ccc(S(=O)(=O)CC#N)cc1 ?
120 to 121 °C

###

Observed property: melting point

Value lookup for melting point; key = COc1ccc2nc(-c3cccc(C)c3)c(-c3ccnc(NC4CCCCC4)c3)n2n1
188 to 189 °C

# get_value(readout='melting point', item= O=C1NCN2c3ccccc3Sc3cccc1c32 )
187 to 192 °C

Any idea what its melting point is? The compound is CCn1c(C)c(C2(c3c(-c4ccccc4)c(-c4ccccc4)c4ccccn34)OC(=O)c3cccnc32)c2ccccc21 (stereo not given)
206 to 208 °C

Report melting point for CCCOc1nc(-c2ccco2)c2ncn(Cc3ccc(OC)cc3)c2n1 please.
119 °C

If you can, please state the reported melting point value of CCCC(=O)C1=C(O)CC(c2cccc3c2OCO3)CC1=O (stereo not given) .
81 to 82 °C

Please look up its melting point: COc1ccc(CNC(=S)NNC(=O)C(N)=O)cc1
185 to 190 °C

May I ask what melting point has been recorded for CC(C)Nc1nc2c(F)c(Cl)c(Cl)cc2[nH]1 ?
212 to 215 °C

I'd like to know its melting point. The compound in question is CCn1c2ccccc2c2cc(NC(=S)NNC(C)=O)ccc21
197 to 199 °C

Using the record for CCOC(=N)C1(O)CCCc2ccccc21 (stereo not given) , report its melting point.
84 to 86 °C

Data request, read-out melting point, for COC(=O)CCNC1(C)CCN(c2ncc3ncnc(Nc4ccc(F)c(Cl)c4)c3n2)CC1
134 to 135 °C

###

Observed property: melting point

Worked examples follow.
| Molecule | Observed property | Result |
| --- | --- | --- |
| C#CC[C@H](c1nc2cc(Cl)ccc2c(=O)n1Nc1ccccc1)N(CCCN)C(=O)c1cccc(Cl)c1F | melting point | 101 to 103 °C |
| CC(C)(C)c1cc(CCc2ccccc2NC(=O)NC2CCN(Cc3ccc(F)c(F)c3)CC2)cc(C(C)(C)C)c1O | melting point | 155 to 156 °C |
| CCOC(=O)N1CCC(O)(c2cccs2)CC1 | melting point | 242 °C |

Look up melting point: CC(C)CCCC(C)C1CCC2C3CC=C4CC(I)CCC4(C)C3CCC12C (stereo not given)
106 °C

Look at this molecule and give its reported melting point. COc1ccc(Cn2cnc3c(-c4ccco4)nc(SC)nc32)cc1
147 to 148 °C

What melting point value was documented for this molecule, CNC(=O)CCCCN1CCC(C(O)(c2ccc(F)cc2)c2ccc(F)cc2)CC1 ?
130 to 131 °C

So what does the record say about melting point for CC(Cc1ccc(-c2ncc(NC(=O)C(F)(F)F)o2)cc1)N1CC(c2cccc(Cl)c2)OC1=O (stereo not given) ?
163 to 164 °C

Requested read-out: melting point. Entry: Cc1ccc2c(c1)-c1ncnn1CC(=O)N2
206 to 208 °C

// melting point lookup, key: COc1cn(-c2ccc(N3CCC(F)(F)CC3)cc2F)nc(-c2ccnn2-c2ccccc2)c1=O
192 to 194 °C

What does the data say about its melting point? Entry: CCc1ccc(Nc2nnc(Cc3ccnc(OC)c3)c3ccccc23)cc1Br
133 to 135 °C

###

Observed property: melting point

| Molecule | melting point |
| --- | --- |
| OCc1ncc2n1-c1ccc(Cl)cc1C(c1ccccc1F)=NC2 | 258 to 260 °C |

Would you kindly look at the next entry?
melting point for CCC(C)(C)OC(=O)NC(C)(Cc1c[nH]c2ccccc12)C(=O)NCCc1cccs1 (stereo unspecified) ?
95 to 98 °C

###

// values below are reported melting point

Please look up its melting point: CC(=O)c1cc2c(=O)n(NS(C)(=O)=O)c(=O)[nH]c2cc1C(F)(F)F
258 to 265 °C

# lookup: melting point of O=c1c2c(Cc3ccccc3)n[nH]c2c2ccccc2n1-c1ccccc1
255 to 257 °C

What measured melting point goes with N=C(N)NCCCOc1ccc2c(c1)N(Cc1ccccc1)C(=O)C(CC(=O)O)C2 (stereo not given) ?
172 to 173 °C

So what does the record say about melting point for CC(C)(C)c1cc(C(=O)OCCN(CCO)C(=O)c2cc(C(C)(C)C)c(O)c(C(C)(C)C)c2)cc(C(C)(C)C)c1O ?
174 to 178 °C

Any idea what melting point was measured for Cc1ccc(COc2cccnc2NC(=S)Nc2ccc(Cl)cc2)cc1 ?
145 to 147 °C

###

Consider the following compounds and their measured melting point readings.

// below: answered compounds
| Compound | Result |
| --- | --- |
| Cc1nnc(-c2ccc3occ(-c4ccc(CO)cc4)c3c2)o1 | 157 to 158 °C |
| Cc1cc(N=C2NCCN2)cc(NS(C)(=O)=O)c1 | 54 to 77 °C |

I'd like to know its melting point. The compound in question is CC12CCC3C(CCC4CC5OC5CC43C)C1CC(N1CCCC1)C2=O (stereo not given)
146 °C

So what's the measured melting point for this one? C=C(C)c1ccccc1S(=O)(=O)NC(=O)Nc1nc(C)cc(C)n1
177 to 183 °C

Fill in: melting point of O=C(O)COc1cccc(-c2n[nH]c3c2Cc2ccccc2-3)c1 is ___
246 to 248 °C
